- ASSAY_OVERVIEW: Acute toxicity in Albino Swiss mouse assessed as change in relative weight of spleen at 300 mg/kg, po administered as single dose measured after 14 days
- Assay type: organism-based
- CONDITIONS: in vivo, 336 h, time 14 day
MEASURED_METRIC: Activity

>>> test_value("CCN(CC)CCCC(C)Nc1ccnc2cc(Cl)ccc12 (stereo unspecified)")
"Non-Toxic"
>>> test_value("CC(C)(O)c1cn(CCNC2=CC(=O)c3ccccc3C2=O)nn1")
"Non-Toxic"
>>> test_value("COc1ccc(-c2cn(CCNC3=CC(=O)c4ccccc4C3=O)nn2)cc1")
"Non-Toxic"
>>> test_value("O=C1C=C(NCCn2cc(-c3ccccc3)nn2)C(=O)c2ccccc21")
"Non-Toxic"
>>> test_value("O=C1C=C(NCCn2cc(C3(O)CCCCC3)nn2)C(=O)c2ccccc21")
"Non-Toxic"

Consider now this further compound.
Activity for "Cc1ccc(-c2cn(CCNC3=CC(=O)c4ccccc4C3=O)nn2)cc1" is Non-Toxic

----------
- ASSAY_OVERVIEW: Acute toxicity in Albino Swiss mouse assessed as aggressiveness at 300 mg/kg, po administered as single dose measured after 14 days
- Format: organism-based
- CONDITIONS: in vivo, 336 h, time 14 day
MEASURED_METRIC: Activity

Here are 5 compounds together with their reported answers.
>>> test_value("O=C1C=C(NCCn2cc(C3(O)CCCCC3)nn2)C(=O)c2ccccc21")
"Non-Toxic"
>>> test_value("O=C1C=C(NCCn2cc(-c3ccccc3)nn2)C(=O)c2ccccc21")
"Non-Toxic"
>>> test_value("COc1ccc(-c2cn(CCNC3=CC(=O)c4ccccc4C3=O)nn2)cc1")
"Non-Toxic"
>>> test_value("CC(C)(O)c1cn(CCNC2=CC(=O)c3ccccc3C2=O)nn1")
"Non-Toxic"
>>> test_value("Cc1ccc(-c2cn(CCNC3=CC(=O)c4ccccc4C3=O)nn2)cc1")
"Non-Toxic"

Consider now this further compound.
Activity for CCN(CC)CCCC(C)Nc1ccnc2cc(Cl)ccc12 (stereo unspecified) is Non-Toxic

Numbers sourced from ChEMBL document CHEMBL5321233.
